- Measured On: MAO-A (Homo sapiens, UniProt P21397)
- Sequence (P21397 whole entry): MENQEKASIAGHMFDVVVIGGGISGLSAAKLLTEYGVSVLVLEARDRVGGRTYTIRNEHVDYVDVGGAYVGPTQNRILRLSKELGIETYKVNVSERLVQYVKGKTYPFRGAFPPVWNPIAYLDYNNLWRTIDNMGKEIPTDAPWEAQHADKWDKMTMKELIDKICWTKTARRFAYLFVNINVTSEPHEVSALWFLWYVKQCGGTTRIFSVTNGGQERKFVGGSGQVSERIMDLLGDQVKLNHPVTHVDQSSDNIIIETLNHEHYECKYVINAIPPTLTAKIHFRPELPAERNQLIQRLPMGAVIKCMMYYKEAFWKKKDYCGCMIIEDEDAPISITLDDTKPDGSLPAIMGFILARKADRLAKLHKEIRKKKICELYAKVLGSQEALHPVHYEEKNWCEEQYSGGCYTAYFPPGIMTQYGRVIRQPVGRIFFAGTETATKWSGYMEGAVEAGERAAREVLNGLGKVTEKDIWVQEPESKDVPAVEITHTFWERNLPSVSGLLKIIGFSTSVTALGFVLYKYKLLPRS
pIC50: −log10 of the molar value.

{"Molecule": "N#C/C(=C\\CO[C@@H]1O[C@H](CO)[C@@H](O)[C@H](O)[C@H]1O)CO [sarmentosin]", "pIC50": 5.45}
